B1: glmS ribozyme (parent)
chain: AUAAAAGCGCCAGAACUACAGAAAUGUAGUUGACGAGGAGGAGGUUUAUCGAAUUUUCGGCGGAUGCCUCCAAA

Variants of: B1
TEST DETAILS: self-cleavage kobs at 640 uM GlcN6P; higher = faster cleavage; RNA array
TEST PARAMETERS: with glucosamine-6-phosphate
Variants at the floor of the assay were thinned out.
OBSERVED PROPERTY: self-cleavage kobs at 640 uM GlcN6P

VARIANT DESIGNATION	ENDPOINT RESULT
C11G G32A G59C	< 1e-05 s⁻¹
G9U A14U U47A	< 1e-05 s⁻¹
A6C G7A	< 1e-05 s⁻¹
C11U U47A	0.000187 s⁻¹
U2C U56C	0.000865 s⁻¹
A15G C16G A42G C67G	0.000348 s⁻¹
C11A G43C C61G	< 1e-05 s⁻¹
A6C G37C U65A	< 1e-05 s⁻¹
A39C C50G	< 1e-05 s⁻¹
G9U C16U U57G C68U	< 1e-05 s⁻¹
G29U A52G C61G C68U U69A	3.32e-05 s⁻¹
C10A U45C	< 1e-05 s⁻¹
C34A A42G G66U	< 1e-05 s⁻¹
A6C U49A C50U	< 1e-05 s⁻¹
G7C A36G A39C	< 1e-05 s⁻¹
C34U C70U	< 1e-05 s⁻¹
G9A G41A	< 1e-05 s⁻¹
A12C C16U A53G U65G	0.000453 s⁻¹
G13C U45G U56A G63A U65C	< 1e-05 s⁻¹
U30C C58U C67G C71A	0.000584 s⁻¹
G7A G32U G43C	< 1e-05 s⁻¹
C11A A53C C67G	< 1e-05 s⁻¹
G7A G40A	< 1e-05 s⁻¹
A12C G35U G41U	< 1e-05 s⁻¹
C34G G40C A48G U49G C71U	< 1e-05 s⁻¹
A14G A39G U69A	0.000936 s⁻¹
C11A G29A C34A U57C	< 1e-05 s⁻¹
G7A G35U	< 1e-05 s⁻¹
G21U C71G	0.000218 s⁻¹
G13A A53C C67G	< 1e-05 s⁻¹
C10G A39U	< 1e-05 s⁻¹
C8U A42G G63A	< 1e-05 s⁻¹
U30A G63A	< 1e-05 s⁻¹
A6U U31A G43U	< 1e-05 s⁻¹
A12G U56C G60A	< 1e-05 s⁻¹
